# credit: patent US20250345392A1

assay.explanation: 14-day repeat IV dose toxicity study with toxicokinetic evaluation on Day 1 and 14 in dogs
Format: in vivo, beagle dogs
protocol.conditions: dog, in vivo, iv, 1 mg/kg/day, IV 1.0 mg/kg/day, female, Day 1, read-out: AUC0-∞ (converted)
Ends that are not written are not given here.

substance | measure.unit | AUC(0-inf)
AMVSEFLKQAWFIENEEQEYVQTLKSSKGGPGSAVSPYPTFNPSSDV-NH2 [Peptide 1] | ng·h/mL | 537

----------
assay.explanation: Clinical test in humans, three 30-min i.v. infusions 8 hours apart, plasma PK
Type: in vivo
protocol.conditions: human, in vivo, iv, 250 ug/kg, three 30-min i.v. infusions 8 h apart, 250 μg/kg each, mean, read-out: AUC0-t1
Ends that are not written are not given here.

substance | measure.unit | AUC
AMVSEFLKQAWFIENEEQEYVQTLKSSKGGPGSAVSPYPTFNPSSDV-NH2 [Peptide 1] | ng·h/mL | 2540
